Reference source for all entries: patent US20240400654A1

biological target: HRgpA-6H (Porphyromonas gingivalis) (UniProt P28784); assay: ELISA, FASEBA screening, coated HRgpA-6H; variant OD over parental WT Fab OD
Observable: Ratio OD(Variant)/OD(WT)
Number only, no unit.

Some entries whose results are on file:
| Binder | Ratio OD(Variant)/OD(WT) |
| --- | --- |
| KB001 parental mouse Fab FASEBA variant VH N100A (Fab, V domains shown) VH: EVQLKQSGPGLVAPSQSLSITCTVSGFSLSIYSVHWVRQPPGKGLEWLGMIWGGGSSDYNSALKSRLSISKDNSKSQVFLKMNSLQTDDTAMYYCARNGAFYAMDYWGQGTSVTVSS VL: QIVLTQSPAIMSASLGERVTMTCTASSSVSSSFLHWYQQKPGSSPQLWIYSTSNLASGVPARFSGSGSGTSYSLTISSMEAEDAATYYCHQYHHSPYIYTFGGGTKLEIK | 0.955 |
| KB001 parental mouse Fab FASEBA variant VH G99F (Fab, V domains shown) VH: EVQLKQSGPGLVAPSQSLSITCTVSGFSLSIYSVHWVRQPPGKGLEWLGMIWGGGSSDYNSALKSRLSISKDNSKSQVFLKMNSLQTDDTAMYYCARNFNFYAMDYWGQGTSVTVSS VL: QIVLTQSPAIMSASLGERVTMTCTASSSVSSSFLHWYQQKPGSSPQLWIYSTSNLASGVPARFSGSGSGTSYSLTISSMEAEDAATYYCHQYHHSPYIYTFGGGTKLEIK | 0.967 |

# evaluate next
Ask: Would you mind telling me what Ratio OD(Variant)/OD(WT) value was observed for KB001 parental mouse Fab FASEBA variant VH Y106D (Fab, V domains shown) VH: EVQLKQSGPGLVAPSQSLSITCTVSGFSLSIYSVHWVRQPPGKGLEWLGMIWGGGSSDYNSALKSRLSISKDNSKSQVFLKMNSLQTDDTAMYYCARNGNFYAMDDWGQGTSVTVSS VL: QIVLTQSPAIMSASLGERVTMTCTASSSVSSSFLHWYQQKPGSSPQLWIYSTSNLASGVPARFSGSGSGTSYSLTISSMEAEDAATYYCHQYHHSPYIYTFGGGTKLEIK ?
Result: 0.878
